Assign RP-LC retention time to each entry below.
test: gradient 5% acetonitrile 3 min, to 50% in 2 min, to 85% in 15 min, held 3 min, 100 µL/min; conditions: column: Zorbax Extend-C18 2.1 x 50 mm; eluents: water / acetonitrile, 0.1% formic acid
Give bare numbers, in s.

1. Cc1ccc(-c2ccc(N3CCCC(C(=O)NCc4ccc5c(c4)OCO5)C3)nn2)cc1C (centres undefined)
763
2. Cc1cc(C)n(CCNC(=O)Cc2ccc(SC(C)C)cc2)n1
755
3. COC(=O)c1ccc(NC(=O)Cn2ccc3ccc(-c4nnc(C)o4)cc32)cc1
776
4. CCCn1nnc2cc(-c3noc(COc4ccc(Cl)cc4)n3)ccc21
1120
5. CC(C)Oc1ccc(CNC(=O)CCCN2C(=O)CCn3nc(-c4cccn4C)cc32)cc1
833
6. CCCNC(=O)N1CCN(c2nc3c(s2)CN(C(=O)CC)CC3)CC1
602
7. Cc1nc(-c2csc(S(=O)(=O)N3CCC(C(=O)NCc4ccccn4)CC3)c2)no1
636
8. COc1cc(NC(=O)NCCc2nc3cccnc3n2C2CCCC2)cc(OC)c1
704

# return RP-LC retention time for each item in the list
1. CN1CCN(Cc2nc3cc(NC(=O)C4CCCCC4)ccc3n2C)CC1
2. COc1ccc(-c2noc(C3CCCN3C(=O)Nc3ccccc3OC)n2)cc1 (centres undefined)
3. CCN1C(=O)COc2ccc(-c3noc(CNS(=O)(=O)c4ccc(F)cc4)n3)cc21

Result:
574
826
860

# return RP-LC retention time for each item in the list
1. Cn1cccc1Cc1nnc(SCC(=O)NCC2CCCO2)n1Cc1ccccc1 (centres undefined)
2. COc1ccc(-c2noc(C3CC(=O)N(c4cc(C)cc(C)c4)C3)n2)c(OC)c1 (centres undefined)
3. COc1ccc(-c2cnn3c(C)cc(C)nc23)cc1S(=O)(=O)N1CCN(C2CCCCC2)CC1

Result:
1: 741; 2: 970; 3: 690

###

assay: gradient 5% acetonitrile 3 min, to 50% in 2 min, to 85% in 15 min, held 3 min, 100 µL/min; conditions: column: Zorbax Extend-C18 2.1 x 50 mm; eluents: water / acetonitrile, 0.1% formic acid
Assign RP-LC retention time to each entry below.
The answer consists of two parts: a number and, after it, its unit.

1) N#Cc1cccc(-c2nc(-c3cccc(-c4ccn[nH]4)c3)no2)c1
920 s

# return RP-LC retention time for each item in the list
1. CCN1C(=O)CCc2cc(NC(=O)c3ccc(C)s3)ccc21
2. COc1ccc(C(=O)N2C[C@@H]3C[C@H](NC(=O)c4cccs4)[C@H]2C3)c(OC)c1
3. Cc1ccc(CN2C(=O)CN(S(C)(=O)=O)CC2(C)C(=O)NC2CCCCCCC2)cc1 (stereo not drawn)
4. O=C(NCC(=O)N1CCCc2ccccc21)c1ccccc1

Result:
800 s
701 s
930 s
777 s

# return RP-LC retention time for each item in the list
1. CCCc1cc(N2CCN(C(=O)c3ccn(CC)n3)CC2)nc2nnc(CC)n12
2. COCCNC(=O)N1c2ccccc2NC2=C(C(=O)CC(C)(C)C2)C1c1ccc(F)cc1 (stereo not drawn)
3. CCCNC(=O)C1CCCN(c2nc3ncn(CC(=O)NCc4cccs4)c(=O)c3s2)C1 (stereo not drawn)
4. Cc1cccc(CC(=O)N2C[C@@H]3C[C@H](NS(C)(=O)=O)[C@H]2C3)c1
5. COc1ccc(NC(=O)C2CCCN(c3ccc(=O)n(-c4ccc(F)cc4)n3)C2)cc1 (stereo not drawn)

Result:
1: 616 s; 2: 749 s; 3: 657 s; 4: 662 s; 5: 828 s

# return RP-LC retention time for each item in the list
1. Cc1ccc(CNS(=O)(=O)c2cc(-c3[nH]ncc3C(=O)N(C)C)oc2C)cc1
2. Cc1nc(NCCNC(=O)c2ccc(Br)o2)cc(-n2cccn2)n1
3. Cn1nc(C(=O)NC2CCCN(c3cc(-c4ccc(Cl)cc4)[nH]n3)C2)c2ccccc21 (stereo not drawn)
4. Cc1ccc(NC(=O)Cn2cccc2-c2nnc(C3CCC3)o2)c(C)c1

Result:
1: 712 s; 2: 673 s; 3: 935 s; 4: 963 s

# return RP-LC retention time for each item in the list
1. Cc1ccc2c(=O)c(C(=O)N3CCCCC3)cn(CC(=O)NC3CCCC3)c2n1
2. O=C(Nc1cc(F)ccc1F)NC1CCN(c2cc(N3CCCC3)cnn2)C1 (stereo not drawn)
3. CCOC(=O)c1cccc(NC(=O)Cn2cnc3nc(N4CCCC(C(=O)NC)C4)sc3c2=O)c1 (stereo not drawn)
4. Cc1cccc(C2CCCN2C(=O)Cn2cc(Cl)cn2)c1 (stereo not drawn)
5. Cc1ccc(-c2ccc(-n3nc(C)c(S(=O)(=O)N4CCCCC4)c3C)nn2)cc1
6. COC(=O)C1=C(CN2CCN(C)CC2)NC(=O)NC1c1cc(C)ccc1C (stereo not drawn)

Result:
694 s
681 s
678 s
866 s
1190 s
614 s

# return RP-LC retention time for each item in the list
1. Cc1cccc(-c2noc(C3CCCN3C(=O)NC(C)C)n2)c1 (stereo not drawn)
2. O=C1c2ccccc2C(=O)N1c1nc(-c2ccccc2)cs1
3. O=C1NCCCCCN(C(=O)c2ccoc2)[C@@H]2C[C@@H](C(=O)N3CCc4ccccc4C3)C[C@H]12
4. CCCN1CCCCc2cc(C(=O)N(CC)C(C)C)sc21
5. CC(=O)OCC(=O)NCCCOc1cccc(CN2CCCCC2)c1

Result:
1: 897 s; 2: 864 s; 3: 753 s; 4: 1240 s; 5: 618 s

# return RP-LC retention time for each item in the list
1. CN(C)c1ccc(CNC(=O)c2ccc3ncnc(N4CCCC4)c3c2)cc1
2. Cc1cc(NC(=O)N(C)CC2CCOC2)ccc1Br (stereo not drawn)
3. CC(C)n1c(=O)sc2cc(S(=O)(=O)N3CCC(C(=O)NCCN4CCCC4)CC3)ccc21
4. CC(C)c1nccn1C1CN(C(=O)c2ccc3[nH]ccc3c2)C1

Result:
556 s
798 s
648 s
580 s

# return RP-LC retention time for each item in the list
1. Cc1ccc(Nc2nc(C(=O)N3CCN(S(C)(=O)=O)CC3)cs2)c(C)c1
2. CCNC(=O)C1CCCN(c2nc3ncn(CC(=O)Nc4ccc5c(c4)OCO5)c(=O)c3s2)C1 (stereo not drawn)
3. Cc1ccc(NC(=O)Cn2c(=O)cc(-c3nc(C(C)C)no3)c3ccccc32)cc1F
4. COc1ccc(N2CC(c3noc(-c4cccc(Cl)c4)n3)CC2=O)cc1 (stereo not drawn)
5. COC(=O)c1ccc(CSc2nnc(NC(=O)C3(c4cccs4)CCCC3)s2)o1
6. O=C(c1cn2nc(Cl)ccc2n1)N1CCN(c2ccc(F)cc2)CC1
7. Cc1noc(C2CN(C(=O)Nc3cc(Cl)ccc3C)CC23CCOCC3)n1 (stereo not drawn)
8. CCC(Sc1nnc2c3ccccc3n(C(C)C)c2n1)C(=O)Nc1nc(-c2ccccc2)cs1 (stereo not drawn)

Result:
["752 s", "649 s", "1080 s", "1030 s", "978 s", "826 s", "760 s", "1310 s"]

Q: Look up RP-LC retention time: NC(=O)[C@@H]1C[C@H](Oc2cccnc2)CN1C(=O)c1cccs1
Result: 532 s
